# Assay Remarks: Toxicity liver stage against HepG2, at 10uM
# Format: cell-based
# Set-up: test concentration 10 uM, cell line HepG2-A16-CD81EGFP
# Condition Info: human, HepG2-A16-CD81EGFP cells; read-out: INHIBITION
A collection of compounds and their measured cytotoxicity at 10 µM
Quick reminder: number only, in %, skip the unit.

// known answers, use as guide
c1cnn(C2CN(CCCOc3ccc4c(c3)OCO4)C2)c1
-4.73
CN(Cc1cscn1)C1CCCN(c2cccnn2)C1 (stereo not given)
-3.69
CC(=O)N1CCc2[nH]cnc2C1C1=CCCN(CCn2cccc2)C1 (stereo not given)
0.375
Fc1ccccc1CN1CCC[C@H](Cn2nnc(-c3cccs3)n2)C1
-0.152

// returns reported cytotoxicity at 10 µM for input O=C1N(Cc2cccc(F)c2)CCC12CCCNC2 (stereo not given) -5.19

How about this compound: CNc1ncc(CN(C)C(=O)c2ccccc2C2CCNC2)cn1 (stereo not given) 0.272

How about this compound: CCN(CC1CCOC1)C(=O)c1ccc(-c2ccsc2)nc1C (stereo not given) 6.39

How about this compound: COc1cccc(CNC(C)c2ccc(-n3ccnc3)cc2)c1OC (stereo not given) -35.1

How about this compound: `CC(C)n1ccnc1C1CCN(C(=O)c2ccc(SCCO)cc2)CC1` -0.232

How about this compound: `CC(C)(C)c1cn(C2CCN(C(=O)c3cnccn3)CC2)nn1` 14

How about this compound: O=C(CC1COCCN1)N1CCC(N2CCc3ccccc3C2)CC1 (stereo not given) -176

How about this compound: `c1cnc(N2CCO[C@H]3CN(Cc4cc[nH]n4)C[C@H]32)cn1` 9.07

How about this compound: `O=C1CCC2(CCN(Cc3ccc(F)cc3)CC2)N1Cc1ccccc1` -1.63

How about this compound: Cc1ccc(CC(=O)NC(C)C(=O)N2CCS(=O)(=O)CC2)s1 (stereo not given) 11.2

How about this compound: `c1ccc(N2CC3(CCN(Cc4cccnc4)C3)C2)nc1` 1.11

How about this compound: `Nc1nc2c(c(N3CCC(CCn4cccn4)CC3)n1)CCNCC2` -4.17

How about this compound: `CCOc1ncccc1CNS(=O)(=O)c1ccc2c(c1)CCC2` 13.3

====

A collection of molecules and their measured cytotoxicity at 10 µM
# Assay Remarks: Toxicity liver stage against HepG2, at 10uM
# Type: cell-based
# Set-up: test concentration 10 uM, cell line HepG2-A16-CD81EGFP
# Condition Info: human, HepG2-A16-CD81EGFP cells; read-out: INHIBITION
Quick reminder: number only, in %, skip the unit.

// known answers, use as guide
CC(C)c1nnc2n1CC(CNCc1nc3ccccc3o1)CC2 (stereo not given)
-1.85
COCCN(Cc1ccccc1)Cc1csc(-c2ncccn2)n1
3.78
COc1ccc(CNc2ncnc3c2NC(=O)CN3)cc1
11.8
Cc1cc(C)n(C2CCCN(C(=O)c3cccc4[nH]ncc34)C2)n1 (stereo not given)
6.22
Cc1nnsc1-c1nnc2sc(C(C)C)nn12
-9.74
Cc1ccc(S(=O)(=O)Cc2nnc(C)n2C)cc1
-2.92
COc1cccc(OC)c1C(=O)NCC(c1cccn1C)N1CCCC1 (stereo not given)
6.89
O=C(Nc1ccccn1)c1ccc(F)c(S(=O)(=O)NC2CC2)c1
4.37

// returns reported cytotoxicity at 10 µM for input `COc1ccc(CN2C[C@H]3CN(c4cncnc4)C(=O)[C@H]3C2)cc1` 4.74

How about this molecule: CC(NC(=O)COc1cccc[n+]1[O-])C1CC1 (stereo not given) -6.66

How about this molecule: `Cc1cc(C)c2cc(CNC3CCCCC3)c3nn(C)c(=O)n3c2c1` -4.55

How about this molecule: `CNC(=O)CN1CCO[C@H]2CN(CC3CCOCC3)C[C@H]21` 12.5

How about this molecule: `O=C(NCCCNc1ccc(C(F)(F)F)cn1)c1ccc2c(c1)OCO2` -8.51

How about this molecule: `CC(C)c1noc(CCCC(=O)N2CCN(Cc3cccnc3)CC2)n1` -2.96

How about this molecule: c1ncn(CC2CCCCN2Cc2noc(C3CC3)n2)n1 (stereo not given) -0.935

How about this molecule: Cc1oc(NC(=O)C(C)N2CCN(CCO)CC2)c(C#N)c1C (stereo not given) -13.6

How about this molecule: `CCn1c(CN2CCCC2)nnc1C1CCN(Cc2cccnc2)CC1` 3.33

How about this molecule: CC(NC(=O)N1CCNC(=O)CC1)c1ccc(C(F)(F)F)cc1 (stereo not given) 13.7

How about this molecule: Cc1nc2c(C#N)cnn2c(C)c1CCC(=O)N(C)C(C)C(C)C (stereo not given) -43.7

How about this molecule: `c1ccc2[nH]c(C3CCN(Cc4nc(C5CC5)no4)CC3)cc2c1` 9.02

How about this molecule: `CC(C)(C)OC(=O)N1CSC[C@@H]1C(=O)NCc1ccsc1` 8.77

How about this molecule: `Cc1cc(C(=O)N(Cc2c(C)nn(C)c2C)C(C)C)nc(C)n1` -9.85

How about this molecule: `Cc1cccc(-c2ccc(C(=O)N3CCSCC3)c(=O)[nH]2)c1` 6.99

How about this molecule: c1ccc(-c2nnc(N3CCCC4(CCOC4)C3)s2)cc1 (stereo not given) -2.37

====

# Assay Remarks: Toxicity liver stage against HepG2, at 10uM
# Assay type: cell-based
# Design: test concentration 10 uM, cell line HepG2-A16-CD81EGFP
# Condition Info: human, HepG2-A16-CD81EGFP cells; read-out: INHIBITION
A collection of molecules and their measured cytotoxicity at 10 µM
Quick reminder: number only, in %, skip the unit.

// known answers, use as guide
CCOC1CCC2(CCN(C(=O)c3csnn3)CC2)c2ccccc21 (stereo not given)
-1.58
CC(C)Cn1ncc(C(=O)O)c1C1CC1
-14
Cc1cnn(CC2CCCN2c2ncnc3sccc23)c1 (stereo not given)
44.4
CCN(CC1COc2ccccc2O1)C(=O)CCn1cncn1 (stereo not given)
-9.21

Let's switch to this molecule now.
// returns reported cytotoxicity at 10 µM for input `COc1cc(C)nc(N2CCN(C(=O)c3ccc(Cl)o3)CC2)n1` -3.22

====

# Assay Remarks: Toxicity liver stage against HepG2, at 10uM
# Format: cell-based
# Parameters: test concentration 10 uM, cell line HepG2-A16-CD81EGFP
# Condition Info: human, HepG2-A16-CD81EGFP cells; read-out: INHIBITION
Property: cytotoxicity at 10 µM (%)
Quick reminder: number only, in %, skip the unit.

// known answers, use as guide
CNC(=O)C1CN(c2ccnc(C)n2)CCN(C2CCOCC2)C1 (centres undefined)
-0.762
Cc1cc(CN2CCCC2c2noc(C3CC3)n2)c2ccccc2n1 (centres undefined)
49.5
Cn1ccnc1C(=O)NCc1cc(=O)n2c(n1)CN(CC1CC1)CCC2
13.8

Let's switch to this compound now.
// returns reported cytotoxicity at 10 µM for input CC(C1CCN(Cc2cnn(C)c2C2CC2)CC1)N1CCCC1 (centres undefined) 6.29

====

A collection of molecules and their measured cytotoxicity at 10 µM
# Assay Remarks: Toxicity liver stage against HepG2, at 10uM
# Assay type: cell-based
# Design: test concentration 10 uM, cell line HepG2-A16-CD81EGFP
# Condition Info: human, HepG2-A16-CD81EGFP cells; read-out: INHIBITION
Quick reminder: number only, in %, skip the unit.

// known answers, use as guide
CN(C)c1ncc(-c2cccc(F)c2)c(C2CNCCO2)n1 (stereo unspecified)
-29.9
CN1CCC/C1=N\S(=O)(=O)c1ccc(NC(=O)c2ccc(F)cc2)cc1
-4.84
Cn1ccnc1C(=O)N1CCCC1c1ccc(C(=O)N2CCOCC2)s1 (stereo unspecified)
-155
CCN(Cc1ccccc1)C(=O)CCN1CC(O)C1
7.48
O=C(NCCN1CCCC1)c1cc2c(s1)CCN2c1ncccn1
-108

Let's switch to this molecule now.
// returns reported cytotoxicity at 10 µM for input CNC(=O)CC1CC2(CCN(S(C)(=O)=O)CC2)c2ccccc21 (stereo unspecified) 5.75

====

# Assay Remarks: Toxicity liver stage against HepG2, at 10uM
# Assay type: cell-based
# Design: test concentration 10 uM, cell line HepG2-A16-CD81EGFP
# Condition Info: human, HepG2-A16-CD81EGFP cells; read-out: INHIBITION
Property: cytotoxicity at 10 µM (%)
Quick reminder: number only, in %, skip the unit.

CNS(=O)(=O)c1ccc(CN(C)Cc2nc3ccc(F)cc3[nH]2)cc1
17.2
CCN1CCC2(COCc3c(C)nc(N(C)C)nc32)C1 (centres undefined)
5.76
Cn1cc(N2C(=O)C[C@@H]3[C@@H]2CCN3C(=O)c2ccco2)cn1
-107
CCc1ccc2c(C3CN(S(C)(=O)=O)C3)ncn2c1
10.6
CCCNC(=O)C1CCN(CC(O)c2ccc(C(F)(F)F)cc2)CC1 (centres undefined)
2.68
O=C(NC1CC1)c1ccc(SCc2cscn2)cc1
1.26
COCC(=O)N1CCC2(CC1)NC(=O)c1ccccc12
3.15
FC(F)Oc1ccccc1CN1CCCC(c2nccn2CC2CC2)C1 (centres undefined)
6.64

Let's switch to this compound now.
// returns reported cytotoxicity at 10 µM for input `Cc1ccc(S(=O)(=O)NC(=O)C2(c3ccccc3)CCC2)c(C)c1` 13.5
